Data origin: patent US20220403048A1

Please respond with reported kon for every item in the list.
- SYSTEM TESTED: T1, biotinylated recombinant human trimeric ARG2 enzyme (Avi-huARG2-His10) (human, UniProt P78540 23-354, biotinylated)
- T1 construct: also called avi-Arg2-His10; bio-ARG2
- T1 chain: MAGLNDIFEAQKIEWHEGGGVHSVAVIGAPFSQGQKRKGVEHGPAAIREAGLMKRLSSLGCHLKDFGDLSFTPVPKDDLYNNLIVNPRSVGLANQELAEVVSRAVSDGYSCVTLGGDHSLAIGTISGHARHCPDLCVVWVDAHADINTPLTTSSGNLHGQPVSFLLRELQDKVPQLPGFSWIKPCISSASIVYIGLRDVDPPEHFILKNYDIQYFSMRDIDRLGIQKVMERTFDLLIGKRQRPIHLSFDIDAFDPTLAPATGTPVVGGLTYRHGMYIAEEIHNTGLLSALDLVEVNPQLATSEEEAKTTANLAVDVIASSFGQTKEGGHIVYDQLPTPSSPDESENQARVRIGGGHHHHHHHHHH
- ASSAY EXPLANATION: BLI (OctetRED) extended assay, bio-ARG2 on streptavidin, Fab as analyte, 1:1 fit
Please reply with the bare figure in M⁻¹ s⁻¹ and do not write the unit itself.

In plain terms, C0021180 Fab (Fab, V domains shown, Human Fab) VH: EVQLLESGGGLVQPGGSLRLSCAASGFTFRYEVAAWVRQAPGKGLEWVSAISGPIPKGYYADSVKGRFTISRDNSKNTLYLQMNSLRAEDTAVYYCARLRADLGLYMDLWGRGTLVTVSS VL: QSVLTQPPTVSAAPGRKVTISCSGSSSNIGDHHVSWYQQLPGAAPKLLIYDTDHMASGIPDRFSGSRSGTSATLGITGLQTGDEADYYCGTWDSSLSALVFGGGTKLTVL has a documented kon of 278000

In plain terms, C0021181 Fab (Fab, V domains shown, Human Fab) VH: EVQLLESGGGLVRPGGSLRLSCAASEFTFRYDYHVWVRQAPGKGLEWVSAISGSGGSTYYADSVKSRFTISRDNSKNTLYLQMNSLRAEDTAVYYCARLRADLGLYMDLWGRGTLVTVSS VL: QSVLTQPPSVSAAPGQKVAVSCSGSSSNIGSHYVSWYQQLPGTAPKLLIYDNSERTSGIPDRFSGSKSGTSATLGITGLQTGDEADYYCGTWDELTSNLVFGGGTRLTVL has a documented kon of 145000

In plain terms, C0021155 Fab (Fab, V domains shown, Human Fab) VH: EVQLLESGGGLVQPGGSLRLSCEASGFTFRYDYHVWVRQAPGKGLEWVSAISGSGGSTYYADPVKGRFTISRDNSKNTLYLQMNSLRAEDTAVYYCARLRADLGLYMDLWGRGTLVTVSS VL: RSVLTQPPSVSAAPGQKVTISCSGSSSNIGNHYVSWYQQLPGTAPKLLIYDTTVLSSGIPDRFSGSKSGTSATLGITGLQTGDEADYYCGTWDELTSNLVFGGGTRLTVL has a documented kon of 159000
